assay: Brain exposure / brain penetration (Table H); format: in vivo, rat; settings: classes High/Moderate/Low, key not given
Measurement kind: BBB Pene Classification

Molecule | Reported measurement
Oc1ccc(OC[C@@H](O)CSc2nc3cc(Cl)c(Cl)cc3[nH]2)cc1 [drawing 776] | High
O=C(COc1ccc2[nH]c(=O)oc2c1)N1CCN(c2ccc(Cl)c(Cl)c2)CC1 [drawing 774] | Moderate
Oc1ccc(OC[C@@H](O)CN2CCN(c3ccc(Cl)cc3)CC2)cc1 [drawing 768] | High
NC(=O)Nc1ccc(OC[C@@H](O)CN2CCN(c3ccc(Cl)cc3)C2=O)cc1 [drawing 773] | Low
O=c1[nH]c2ccc(OC[C@@H](O)CSc3nc4cc(Cl)c(Cl)cc4[nH]3)cc2o1 [drawing 777] | Moderate
NC(=O)Nc1ccc(OC[C@@H](O)CN2CCN(c3ccc(Cl)cc3)CC2)cc1 [drawing 771] | Low
CS(=O)(=O)Nc1ccc(OC[C@@H](O)CN2CCN(c3ccc(F)c(F)c3)CC2)cc1 [drawing 770] | Moderate
Cc1ccc(N2CCN(C[C@H](O)COc3ccc4[nH]c(=O)oc4c3)CC2)cc1 [drawing 769] | Moderate
O=C1N(C[C@H](O)COc2ccc(O)cc2)CCN1c1ccc(Cl)cc1 [drawing 772] | High

* * *

assay: Brain exposure / brain penetration (Table H); assay type: in vivo, rat; conditions: rat, brain/plasma, iv, 1 mg/kg; 1 MPK i.v., 1 hr; read-out: RATIO: Brain:plasma (Direct), 1 hr

Compound | Kp at 1 h
O=C(COc1ccc2[nH]c(=O)oc2c1)N1CCN(c2ccc(Cl)c(Cl)c2)CC1 [drawing 775] | 0.07

* * *

assay: Brain exposure / brain penetration (Table H); assay type: in vivo, rat; conditions: rat, brain/plasma, iv, 1 mg/kg; 1 MPK i.v., avg; read-out: RATIO: Brain:plasma (Direct), avg

Compound | Kp
O=C(COc1ccc2[nH]c(=O)oc2c1)N1CCN(c2ccc(Cl)c(Cl)c2)CC1 [drawing 775] | 0.07

* * *

target: rat alpha-1 adrenergic receptor; assay: alpha-1 adrenergic receptor binding by displacement of 3[H]-prazosin in rat brain membranes; settings: 3[H]-prazosin displacement, read-out: α1 IC50
pIC50: −log10 of the molar value.
Reported pIC50 values for a set of molecules
Measurement kind: pIC50

Molecule | Reported measurement
CS(=O)(=O)Nc1ccc(OC[C@@H](O)CN2CCN(c3ccc(Cl)cc3)CC2)cc1 | 6.46
O=c1[nH]c2ccc(OC[C@@H](O)CN3CCN(c4ccc(Cl)cc4)CC3)cc2o1 [drawing 744] | 6.21
NC(=O)Nc1ccc(OC[C@@H](O)CN2CCN(c3ccc(Cl)cc3)CC2)cc1 [drawing 746] | 6.47
Oc1ccc(OC[C@@H](O)CN2CCN(c3ccc(Cl)cc3)CC2)cc1 [drawing 743] | 6.14

* * *

experiment: Brain exposure / brain penetration (Table H); type: in vivo, rat; conditions: rat, brain/plasma, iv, 1 mg/kg; 1 MPK i.v., 3 hr; read-out: RATIO: Brain:plasma (Direct), 3 hr
Measurement kind: Kp at 3 h

Molecule | Reported measurement
O=C(COc1ccc2[nH]c(=O)oc2c1)N1CCN(c2ccc(Cl)c(Cl)c2)CC1 [drawing 775] | 0.1

* * *

assay: Brain exposure / brain penetration (Table H); format: in vivo, rat; details: rat, brain/plasma, iv, 1 mg/kg; 1 MPK i.v., 15 m; read-out: RATIO: Brain:plasma (Direct), 15 m

Compound | Kp at 15 min
O=C(COc1ccc2[nH]c(=O)oc2c1)N1CCN(c2ccc(Cl)c(Cl)c2)CC1 [drawing 775] | 0.04

* * *

target: rat alpha-1 adrenergic receptor; assay: alpha-1 adrenergic receptor binding by displacement of 3[H]-prazosin in rat brain membranes; settings: 3[H]-prazosin displacement, read-out: α1 IC50
pIC50: −log10 of the molar value.
Reported pIC50 values for a set of compounds

Substance smiles | pIC50
O=C1CCc2cc(OC[C@@H](O)CN3CCN(c4ccc(Cl)cc4)CC3)ccc2N1 | ~7.00
O=C1Cc2cc(OC[C@@H](O)CN3CCN(c4ccc(Cl)cc4)CC3)ccc2N1 | ~7.00
O[C@H](COc1ccc2[nH]ncc2c1)CN1CCN(c2ccc(Cl)cc2)CC1 | ~6.52
O=c1[nH]c2ccc(OC[C@@H](O)CN3CCN(c4ccc(Cl)cc4)CC3)cc2[nH]1 | ~6.46
O[C@H](COc1ccc2[nH]c(=S)[nH]c2c1)CN1CCN(c2ccc(Cl)cc2)CC1 | ~6.82
O=c1ccc2cc(OC[C@@H](O)CN3CCN(c4ccc(Cl)cc4)CC3)ccc2[nH]1 | ~6.46

Measured values drawn from patent US9079852B2 for this set.
